Task for the reader: assign each of the following compounds its reported IC50.
Biological target: CYP11A1 (Homo sapiens)
Construct: human H295R adrenocortical carcinoma cell line was used as source of enzyme; endogenous in cells
Experiment: CYP11A1 inhibition: modified isocaproic acid release assay (IARA) in H295R cells
Conditions: human H295R adrenocortical carcinoma cells treated three days, 3 nM [24,25-3H]-labelled cholesterol, 1% DMSO, 10 concentrations in duplicates; read-out: IC50 of the test compounds on CYP11A1 inhibition

Some solved cases for reference:
1) CCN=S(C)(=O)c1ccc(COc2coc(CN3Cc4ccccc4C3)cc2=O)cc1 (centres unmarked) :: 150 to 300 nM
2) CS(=O)(=O)c1ccc(COc2coc(CN3Cc4ccc(F)cc4C3)cc2=O)cc1 :: 150 to 300 nM
3) O=c1cc(CN2Cc3ccccc3C2)occ1OCc1ccc(S(=O)(=O)N2CCCCC2)cc1 :: 150 to 300 nM
4) CC1c2ccccc2CCN1Cc1cc(=O)c(OCc2ccc(C(=O)N3CCCC3)cc2)co1 (centres unmarked) :: 301 to 2000 nM
5) CC(C)S(=O)(=O)N1CCC(COc2coc(CN3Cc4ccccc4C3)cc2=O)CC1 :: 150 to 300 nM
6) NC(=O)c1ccc(COc2coc(CN3Cc4ccccc4C3)cc2=O)cc1F :: 301 to 2000 nM
7) COCc1cccnc1N1CCN(C(=O)COc2coc(CN3Cc4ccccc4C3)cc2=O)CC1 :: 301 to 2000 nM
8) CC(C)(C)OC(=O)N1CC[C@@H](COc2coc(CN3Cc4ccccc4C3)cc2=O)C1 :: 150 to 300 nM

For each of the compounds below, note its IC50.
1. CC(C)(CO)CNC(=O)c1ccc(COc2coc(CN3Cc4ccccc4C3)cc2=O)cc1
2. CC(c1cc(=O)c(OCc2ccc(S(C)(=N)=O)cc2)co1)N1Cc2ccccc2C1 (centres unmarked)
3. CCC(=O)N1CCC(COc2coc(CN3Cc4ccc(C(F)(F)F)cc4C3)cc2=O)CC1 [Compound 244a]
4. CS(=O)(=O)N1CC[C@@H](COc2coc(CN3Cc4ccccc4C3)cc2=O)C1
5. O=C(c1ccco1)N1CCC(COc2coc(CN3Cc4ccccc4C3)cc2=O)CC1
6. CS(=O)(=O)c1ccc(COc2coc(CN3CCc4ccccc4C3)cc2=O)cc1
7. CC(C)NC(=O)N1CCC(COc2coc(CN3Cc4ccccc4C3)cc2=O)CC1

1. 301 to 2000 nM
2. < 150 nM
3. < 150 nM
4. 301 to 2000 nM
5. 150 to 300 nM
6. 301 to 2000 nM
7. < 150 nM

For each of the compounds below, note its IC50.
1. O=c1cc(CN2Cc3ccccc3C2)occ1OCc1ccc(S(=O)(=O)C2COC2)cc1
2. CC(C)NC(=O)c1ccc(COc2coc(CN3Cc4ccccc4C3)cc2=O)cc1

150 to 300 nM
150 to 300 nM

###

Target: CYP11A1 (Homo sapiens)
Construct: human H295R adrenocortical carcinoma cell line was used as source of enzyme; endogenous in cells
Assay: CYP11A1 inhibition: modified isocaproic acid release assay (IARA) in H295R cells
Details: human H295R adrenocortical carcinoma cells treated three days, 3 nM [24,25-3H]-labelled cholesterol, 1% DMSO, 10 concentrations in duplicates; read-out: IC50 of the test compounds on CYP11A1 inhibition
Task for the reader: assign each of the following compounds its reported IC50.

For each of the compounds below, note its IC50.
1. O=C(N1CCC(COc2coc(CN3Cc4ccccc4C3)cc2=O)CC1)C(F)(F)F [Compound 273]
2. O=C(N1CCOCC1)N1CCC(COc2coc(CN3Cc4ccccc4C3)cc2=O)CC1 [Compound 232]
3. CCN(CC)S(=O)(=O)c1ccc(COc2coc(CN3Cc4ccccc4C3)cc2=O)cc1 [Compound 4]
4. CS(=O)(=O)N1CCC(COc2coc(CN3Cc4cc(F)c(F)cc4C3)cc2=O)CC1 [Compound 210]

["150 to 300 nM", "< 150 nM", "150 to 300 nM", "150 to 300 nM"]

###

Target: CYP11A1 (Homo sapiens, UniProt P05108)
Construct: human H295R adrenocortical carcinoma cell line was used as source of enzyme; endogenous in cells
Sequence (P05108 40-521): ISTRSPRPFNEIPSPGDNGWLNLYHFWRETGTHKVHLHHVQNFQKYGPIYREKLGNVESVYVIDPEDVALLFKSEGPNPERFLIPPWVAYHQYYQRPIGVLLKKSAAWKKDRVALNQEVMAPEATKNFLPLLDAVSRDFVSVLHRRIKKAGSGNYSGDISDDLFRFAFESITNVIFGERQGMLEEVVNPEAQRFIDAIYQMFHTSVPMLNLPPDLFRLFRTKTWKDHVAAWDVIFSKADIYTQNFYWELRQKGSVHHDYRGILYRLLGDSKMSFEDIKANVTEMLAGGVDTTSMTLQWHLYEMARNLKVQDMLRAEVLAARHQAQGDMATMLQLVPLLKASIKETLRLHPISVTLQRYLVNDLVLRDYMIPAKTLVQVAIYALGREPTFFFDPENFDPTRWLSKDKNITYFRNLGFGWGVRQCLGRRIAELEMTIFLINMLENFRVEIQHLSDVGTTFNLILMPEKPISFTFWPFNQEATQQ
Experiment: CYP11A1 inhibition: modified isocaproic acid release assay (IARA) in H295R cells
Conditions: human H295R adrenocortical carcinoma cells treated three days, 3 nM [24,25-3H]-labelled cholesterol, 1% DMSO, 10 concentrations in duplicates; read-out: IC50 of the test compounds on CYP11A1 inhibition
Task for the reader: assign each of the following molecules its reported IC50.

Some solved cases for reference:
1) CS(=O)(=O)c1ccc(COc2coc(CN3CCc4ccccc4C3)cc2=O)c(Cl)c1 :: 301 to 2000 nM
2) CS(=O)(=O)c1ccc(COc2coc(CN3Cc4ccc([N+](=O)[O-])cc4C3)cc2=O)cc1 :: 150 to 300 nM
3) Cc1ccc(S(=O)(=O)N=S(C)(=O)C2CCC(COc3coc(CN4Cc5ccccc5C4)cc3=O)CC2)cc1 (centres unmarked) :: 150 to 300 nM

For each of the molecules below, note its IC50.
1. O=C(NC1CC1)N1CCC(COc2coc(CN3Cc4ccccc4C3)cc2=O)CC1
2. CCOC(=O)C(=O)N1CCC(COc2coc(CN3Cc4ccccc4C3)cc2=O)CC1

150 to 300 nM
150 to 300 nM

For each of the molecules below, note its IC50.
1. CC(=O)N1CCC(COc2coc(CN3Cc4ccccc4C3)cc2=O)CC1
2. O=C(COc1coc(CN2Cc3ccccc3C2)cc1=O)N1CCC(Cc2ccccc2)CC1

1: 150 to 300 nM; 2: 301 to 2000 nM

Lab note: CNS(=O)(=O)c1ccc(COc2coc(CN3Cc4ccccc4C3)cc2=O)cc1 gave IC50 of < 150 nM

###

Task for the reader: assign each of the following compounds its reported pIC50.
Molecular target: CYP11A1 (Homo sapiens)
Construct: human H295R adrenocortical carcinoma cell line was used as source of enzyme; endogenous in cells
Test: CYP11A1 inhibition: modified isocaproic acid release assay (IARA) in H295R cells
Conditions: human H295R adrenocortical carcinoma cells treated three days, 3 nM [24,25-3H]-labelled cholesterol, 1% DMSO, 10 concentrations in duplicates; read-out: IC50 of the test compounds on CYP11A1 inhibition
pIC50: −log10 of the molar value. Structures can show the parent of a compound that is named as a salt.

1. CCC(=O)N1CCC(COc2coc(CN3Cc4ccccc4C3)cc2=O)CC1 :: > 6.82
2. CNC(=S)N1CCC(COc2coc(CN3Cc4ccccc4C3)cc2=O)CC1 :: 6.52 to 6.82

For each of the compounds below, note its pIC50.
1. COc1ccc2c(c1)CCN(Cc1cc(=O)c(OCc3ccc(C(C)(C)O)cc3)co1)C2
2. CS(=O)(=O)c1ccc(COc2coc(CN3Cc4ccc(OC(F)(F)F)cc4C3)cc2=O)cc1
3. C=C(C)c1ccc(COc2coc(CN3Cc4ccccc4C3)cc2=O)cc1
4. CC(C)CS(=O)(=O)c1ccc(COc2coc(CN3Cc4ccccc4C3)cc2=O)cc1
5. COCCS(=O)(=O)N1CCC(COc2coc(CN3Cc4ccccc4C3)cc2=O)CC1
6. CCS(=N)(=O)c1ccc(COc2coc(CN3Cc4ccc([N+](=O)[O-])cc4C3)cc2=O)cc1 (stereo not drawn)
7. CC(C)CC(=O)N[C@@H]1C=C[C@H](COc2coc(CN3Cc4ccccc4C3)cc2=O)C1 (relative stereo) [Compound 275, Formate]

1: 5.70 to 6.52; 2: > 6.82; 3: > 6.82; 4: > 6.82; 5: > 6.82; 6: 6.52 to 6.82; 7: 5.70 to 6.52

For each of the compounds below, note its pIC50.
1. O=CN1CCC(COc2coc(CN3Cc4ccccc4C3)cc2=O)CC1 [Compound 284, HCl]
2. COCCS(=O)(=O)c1ccc(COc2coc(CN3Cc4ccc(F)cc4C3)cc2=O)cc1

1: 6.52 to 6.82; 2: 6.52 to 6.82

For each of the compounds below, note its pIC50.
1. CC1(C)c2ccccc2CN1Cc1cc(=O)c(OCC2CCN(S(C)(=O)=O)CC2)co1
2. CS(=N)(=O)C1CCC(COc2coc(CN3Cc4ccccc4C3)cc2=O)CC1 (stereo not drawn)
3. CC(=O)OCC(=O)N1CCC(COc2coc(CN3Cc4ccccc4C3)cc2=O)CC1
4. NS(=O)(=O)c1ccc(COc2coc(CN3Cc4ccccc4C3)cc2=O)cc1
5. CC(=O)N=S(C)(=O)c1ccc(COc2coc(CN3Cc4ccccc4C3)cc2=O)cc1 (stereo not drawn)
6. CN(C)C(=O)c1c(F)cc(COc2coc(CN3Cc4ccccc4C3)cc2=O)cc1F
7. O=c1cc(CN2Cc3ccccc3C2)occ1OCc1ccc(-c2ccccn2)cc1

1: 5.70 to 6.52; 2: 5.70 to 6.52; 3: > 6.82; 4: 5.70 to 6.52; 5: 6.52 to 6.82; 6: 6.52 to 6.82; 7: 6.52 to 6.82

For each of the compounds below, note its pIC50.
1. Cc1ccc(COc2coc(CN3CCc4ccccc4C3)cc2=O)cc1
2. Cc1ccc2c(c1)CN(Cc1cc(=O)c(OCC3CCN(S(C)(=O)=O)CC3)co1)C2
3. CCS(=N)(=O)c1ccc(COc2coc(CN3Cc4ccc(F)cc4C3)cc2=O)cc1 (stereo not drawn)
4. O=c1cc(CN2Cc3ccccc3C2)occ1OCc1ccc(S(=O)(=O)N2CCCC2)cc1
5. Cc1ccc(S(=O)(=O)N=S(C)c2ccc(COc3coc(CN4Cc5ccccc5C4)cc3=O)cc2)cc1 (stereo not drawn)
6. CS(=O)(=O)N1CCC(COc2coc(CN3CCc4ccccc4C3)cc2=O)CC1
7. N#Cc1ccc(COc2coc(CN3CCc4ccccc4C3)cc2=O)cc1
8. CS(=N)(=O)c1ccc(COc2coc(CN3CCc4ccccc4C3)cc2=O)cc1 (stereo not drawn)

["5.70 to 6.52", "> 6.82", "6.52 to 6.82", "> 6.82", "> 6.82", "5.70 to 6.52", "5.70 to 6.52", "5.70 to 6.52"]
